Source listed as patent US20230134571A1.

target: HIV Env of isolate 3103.v3.c10 (clade ACD) (HIV); assay: cell-based or functional assay

# binder, IC80 (µg/ml) with constrains, µg/mL
data = [
    ("PGDM1400 (antibody, V domains shown) VH: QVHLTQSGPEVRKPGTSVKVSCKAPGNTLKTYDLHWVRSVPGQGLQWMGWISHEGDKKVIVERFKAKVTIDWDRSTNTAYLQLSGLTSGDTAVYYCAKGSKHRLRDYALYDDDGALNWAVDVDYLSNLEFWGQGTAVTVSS VL: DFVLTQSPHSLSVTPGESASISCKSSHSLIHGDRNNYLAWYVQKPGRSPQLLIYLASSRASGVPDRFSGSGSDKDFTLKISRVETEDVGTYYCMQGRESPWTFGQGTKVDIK", 0.892),
]
